Provenance of the data: ChEMBL document CHEMBL4513149

- Test system: Staphylococcus aureus
- applied-conditions: Concentration 20 uM; ASSAY_TEST Inhibition of Bacterial Growth; detection method Absorption (OD600); MEDIA CAMHB; plate type 384well; NBS; CORNING #3640; time 18 hr
- Description: Antibacterial activity against Staphylococcus aureus MRSA ATCC 43300 (CO-ADD:GP_020); MIC in CAMBH media, using NBS plates, by OD(600)
Measured potencies and affinities stand elsewhere.
attribute-measured: Inhibition (%)

molecule=CCOc1ccc(OCC(=O)Nc2cc(C)cc(C)c2)cc1 value_measured=14.06
molecule=CC(C)(C)C(=O)N(CCCCCCN1C[C@H](O)[C@@H](O)[C@H](O)[C@H]1CO)C1CCCCCC1 value_measured=-1.36
molecule=O=C(NCc1nnc2n1CCCCC2)c1ccc(-c2ccc(F)cc2)o1 value_measured=15.64
molecule="CNc1cc(C)nc(C2CN(C(=O)c3n[nH]c4ccccc34)CCO2)c1 (stereo not given)" value_measured=17.74
molecule=CS(=O)(=O)Cc1nc2ccccc2oc1=O value_measured=30.23
molecule="CC1=NN(c2nc3ccccc3s2)C(=O)C1Cc1cccc2ccccc12 (stereo not given)" value_measured=69.16
molecule="CC1=Nc2ccc(Cl)cc2C(O)(c2ccc(C)cc2)N1CCN1CCCCC1 (stereo not given)" value_measured=19.52
molecule=C[C@H](c1ccc2c(c1)CCCC2)N(C)c1ncc2c(N)nc(N)nc2n1 value_measured=64.04
molecule=Cc1ccc2nc(C)c(-c3ccn(Cc4ccccc4)n3)n2c1 value_measured=13.47
molecule=COc1cccc(-c2cc3c(Nc4cccnc4)nccc3[nH]2)c1 value_measured=13.42
molecule=Cc1cccc(-c2nc(Nc3ccncn3)c3sccc3n2)n1 value_measured=21.43
molecule=CCc1ccc([C@@H]2C[C@H](C(F)(F)F)n3ncc(C(=O)NCc4ccc(OC)cc4)c3N2)cc1 value_measured=5.55
molecule="O=C(C(Cc1c[nH]c2ccccc12)NS(=O)(=O)c1ccc(Cl)cc1)N1CCCCC1 (stereo not given)" value_measured=2.32
molecule=Cl.O=C(Nc1ccc(N2CCNCC2)nc1)c1oc(-c2ccccc2)nc1C(F)(F)F value_measured=15.48
molecule=N#Cc1nc(-c2ccccc2)oc1S(=O)(=O)c1ccc(Cl)cc1 value_measured=8.62
molecule=Cc1noc(C)c1COc1cccc(C(=O)N=c2[nH]cccc2C)c1 value_measured=21.93
molecule=CN(C)CCNC(=O)N1CCCN(c2ncnc3cc(-c4ccccc4)sc23)CC1 value_measured=13.78
molecule=CCOc1ccc(-c2nc(NC(=O)CS(=O)(=O)c3ccccc3)sc2C)cc1 value_measured=3.82
molecule=Nc1ncc(Br)cc1-c1nc2cc(Cl)cnc2[nH]1 value_measured=26.53
molecule="NCCC(O)C(=O)N[C@@H]1C[C@H](N)[C@@H](OC2O[C@H](CN)[C@@H](O)[C@H](O)[C@H]2O)[C@H](O)C1OC1O[C@H](CO)[C@@H](O)[C@H](N)[C@H]1O.O=S(=O)(O)O.O=S(=O)(O)O (stereo not given in full)" value_measured=14.32

###

- System: Escherichia coli
- applied-conditions: Concentration 20 uM; ASSAY_TEST Inhibition of Bacterial Growth; detection method Absorption (OD600); MEDIA CAMHB; plate type 384well; NBS; CORNING #3640; time 18 hr
- Description: Antibacterial activity against Escherichia coli ATCC 25922 (CO-ADD:GN_001); MIC in CAMBH media using NBS plates, by OD(600)
Measured potencies and affinities stand elsewhere.
Listed next: entries and their corresponding Inhibition.
attribute-measured: Inhibition (%)

molecule=O=[N+]([O-])c1cn2c(n1)OC[C@@H](OCc1ccc(OC(F)(F)F)cc1)C2 attribute_measured=Inhibition value_measured=4.79
molecule=CN(C)c1cc(NC(=O)Nc2ccccc2)c2ccccc2n1 attribute_measured=Inhibition value_measured=6.08
molecule=Clc1cccc(CO[C@H]2CCc3ccccc3[C@@H]2n2ccnn2)c1 attribute_measured=Inhibition value_measured=7.53
molecule=CC(=O)O.CC(=O)O.Nc1ncnc2c1ncn2[C@@H]1O[C@H](COS(=O)(=O)NC(=O)c2ccccc2O)[C@@H](O)[C@H]1O attribute_measured=Inhibition value_measured=5.07
molecule=O=C1[C@@H](Oc2ccccc2)[C@@H](c2ccc(Cl)cc2)N1CCn1cnc2c(NCc3ccccc3)ncnc21 attribute_measured=Inhibition value_measured=1.08
molecule=CC(=O)N(CCN(C(=O)c1ccc(F)cc1)c1ccccc1)c1ccccc1 attribute_measured=Inhibition value_measured=5.32
molecule="CC(C)=CCC/C(C)=C\\CNCCNC1C2CC3CC(C2)CC1C3 (stereo unspecified)" attribute_measured=Inhibition value_measured=10.47
molecule="CC(C(=O)N1CCCC1)N1CCN(S(=O)(=O)c2ccc(C(C)(C)C)cc2)CC1 (stereo unspecified)" attribute_measured=Inhibition value_measured=-2.16
molecule=Cl.Cn1ccnc1CNCCS(=O)(=O)c1cccc(Nc2ccc(-c3cccc(F)c3)cn2)c1 attribute_measured=Inhibition value_measured=8.19
molecule=O=C(OCc1ccccc1)N1CCC(c2cc(-c3ccncc3)c(-c3ccc(F)cc3)[nH]2)CC1 attribute_measured=Inhibition value_measured=4.05
molecule=Cc1cc(C)n2nc(C(=O)Nc3cc(C(F)(F)F)ccc3N3CCOCC3)nc2n1 attribute_measured=Inhibition value_measured=10.47
molecule=FC(F)(F)c1ccc(N(c2cccnc2)C2CCN(c3ccc(C(F)(F)F)cn3)CC2)cc1 attribute_measured=Inhibition value_measured=5.86
molecule=NS(=O)(=O)c1cccc(-c2ccc3ncc(N4CCOCC4)nc3c2)c1 attribute_measured=Inhibition value_measured=14.17
molecule=O=C(N[C@H](Cc1ccccc1)C(=O)Nc1ccccc1N1CCOCC1)c1cccs1 attribute_measured=Inhibition value_measured=8.05
molecule="O=C(c1ccc(NCCO)cc1)C1C[C@H]1c1ccc(Cl)cc1 (stereo partly specified)" attribute_measured=Inhibition value_measured=-0.72
molecule=CC(C)(C)c1cnc(NC(=O)c2ccccc2O)s1 attribute_measured=Inhibition value_measured=4.86
molecule=CCOC(=O)c1c(NC(=O)c2c(F)c(F)c(F)c(F)c2F)sc(C(N)=O)c1C attribute_measured=Inhibition value_measured=12.47
molecule=Cc1ccc(NC(=O)c2cc(S(=O)(=O)NC(C)(C)C)ccc2C)nc1 attribute_measured=Inhibition value_measured=8.11
molecule=CCN(CC)C(=O)N1CCN(C)CC1 attribute_measured=Inhibition value_measured=7.97
molecule="CC(Oc1ccccc1)C(=O)Nc1nc(-c2ccccn2)cs1 (stereo unspecified)" attribute_measured=Inhibition value_measured=-10.82
molecule=COc1cc(CN2CCC3(C=Cc4ccccc43)CC2)cc2c1OCO2 attribute_measured=Inhibition value_measured=-2.88

###

- System: Escherichia coli
- applied-conditions: Concentration 20 uM; ASSAY_TEST Inhibition of Bacterial Growth; detection method Absorption (OD600); MEDIA CAMHB; plate type 384well; NBS; CORNING #3640; time 18 hr
Potency and affinity values are given separately.
attribute-measured: Inhibition (%)

compound=Cl.c1ccc(Oc2ccc(-c3cc(N4CCNCC4)[nH]n3)cc2)cc1 value_measured=9.1
compound=Cc1ccc(-c2cc(C(=O)Nc3cccnc3)c3cc(Br)ccc3n2)cc1 value_measured=9.4
compound=COc1cc2ncnc(NC3CCN(Cc4ccccc4)CC3)c2cc1OC value_measured=-0.93
compound="COc1ccccc1C(C)NCC(=O)Nc1cc(C(F)(F)F)ccc1Cl (stereo not given)" value_measured=8.42
compound=N#CCN(CCCCN1CCN(c2ccc(F)cc2)CC1)C(=O)OCc1ccccc1 value_measured=7.95
compound=O=C(C1CCN(c2nnc(-n3cccc3)s2)CC1)N1CCC(Cc2ccccc2)CC1 value_measured=6.98
compound=O=C(Nc1ccnc(-c2cccnc2)n1)c1cc(C(F)(F)F)cc(C(F)(F)F)c1 value_measured=6.19
compound="Cc1cc2ccccc2n1CC(=O)N1CC(C(=O)N2CCCCC2)Oc2ccccc21 (stereo not given)" value_measured=10.52
compound="CC(C)/N=c1\\cc2n(-c3ccc(Cl)cc3)c3ccccc3nc-2cc1Nc1ccc(Cl)cc1 [CLOFAZIMINE]" value_measured=9.66
compound=Nc1nccc2ccc(Oc3ccncc3)cc12 value_measured=7.44

###

- System: Escherichia coli
- applied-conditions: Concentration 20 uM; ASSAY_TEST Inhibition of Bacterial Growth; detection method Absorption (OD600); MEDIA CAMHB; plate type 384well; NBS; CORNING #3640; time 18 hr
Entries with a potency or affinity are not part of this list.
Inhibition values for the compounds below.
attribute-measured: Inhibition (%)

compound=COc1ccc(CCN2CCC(NCc3cccc(N(C)C)c3)CC2)cc1 target_or_system="Escherichia coli" attribute_measured=Inhibition uom=% value_measured=1.75
compound=O=C(C1CCN(c2nnnn2-c2ccccc2)CC1)N1CCc2ccccc2C1 target_or_system="Escherichia coli" attribute_measured=Inhibition uom=% value_measured=5.61
compound=NC(=O)c1cc(Br)ccc1OCCOc1ccccc1 target_or_system="Escherichia coli" attribute_measured=Inhibition uom=% value_measured=-2.13
compound="CN1CCCN(C(c2ccccc2)c2ccc(Cl)cc2)CC1 (stereo unspecified) [HOMOCHLORCYCLIZINE]" target_or_system="Escherichia coli" attribute_measured=Inhibition uom=% value_measured=4.77
compound="Cc1ccc2[nH]c(C3CCCNC3)c(-c3ccncc3)c2c1.Cl.Cl (stereo unspecified)" target_or_system="Escherichia coli" attribute_measured=Inhibition uom=% value_measured=2.54
compound=Nc1ncnc2c1c(-c1cnc3ccccc3c1)nn2CC1CCNCC1 target_or_system="Escherichia coli" attribute_measured=Inhibition uom=% value_measured=-4.76
compound=CS(=O)(=O)c1ccccc1C(=O)N(Cc1ccccc1)c1ccccc1 target_or_system="Escherichia coli" attribute_measured=Inhibition uom=% value_measured=5.13
compound=COc1ccc(-c2nc(-c3cccc(NC(=O)Cc4ccc(F)cc4)c3)no2)cc1OC target_or_system="Escherichia coli" attribute_measured=Inhibition uom=% value_measured=8.52
compound="O=C(C1CCCCC1)N1CC(=O)N2CCc3ccccc3C2C1 (stereo unspecified) [PRAZIQUANTEL]" target_or_system="Escherichia coli" attribute_measured=Inhibition uom=% value_measured=6.83
compound="CC(C)C(NC(=O)Cc1cccc2ccccc12)C(=O)Nc1cccc(C#N)c1 (stereo unspecified)" target_or_system="Escherichia coli" attribute_measured=Inhibition uom=% value_measured=6.32
compound="COC(=O)C1=C(C)NC(C)=C(C(=O)OC(C)C)C1c1cccc2nonc12 (stereo unspecified) [ISRADIPINE]" target_or_system="Escherichia coli" attribute_measured=Inhibition uom=% value_measured=-1.04
compound="COc1ccc(OC(C)C(=O)Nc2ccc(Cl)cc2C)cc1 (stereo unspecified)" target_or_system="Escherichia coli" attribute_measured=Inhibition uom=% value_measured=5.14
compound=CCN(CC)S(=O)(=O)c1ccc(Cl)c(C(=O)Nc2ccc3nc(C)sc3c2)c1 target_or_system="Escherichia coli" attribute_measured=Inhibition uom=% value_measured=0.28
compound=Cc1cc(Cl)ccc1NC(=O)CCc1ccc(S(=O)(=O)NCC(C)C)cc1 target_or_system="Escherichia coli" attribute_measured=Inhibition uom=% value_measured=9.61
compound=CC(C)(C)OC(=O)N1CCN(c2nccc(-c3ccc(-c4ccc(Cl)cc4)s3)n2)CC1 target_or_system="Escherichia coli" attribute_measured=Inhibition uom=% value_measured=9.45
compound=CCCc1ccc(S(=O)(=O)Nc2ccc(CN3CCN(CC4CC4)CC3)cc2)cc1 target_or_system="Escherichia coli" attribute_measured=Inhibition uom=% value_measured=6.87
compound=COc1cc(-c2cc(-c3ccc(S(C)(=O)=O)cc3)cnc2N)ccc1O target_or_system="Escherichia coli" attribute_measured=Inhibition uom=% value_measured=6.84
compound=COc1cncc(-c2cncc(N3CCN(c4ccncc4)CC3)n2)c1 target_or_system="Escherichia coli" attribute_measured=Inhibition uom=% value_measured=13.61
compound=CC(C)(C(=O)Nc1ccc(F)cc1)n1cc(-c2ccccc2F)cn1 target_or_system="Escherichia coli" attribute_measured=Inhibition uom=% value_measured=9.99
compound="CC1=NN(c2nc3ccccc3s2)C(=O)C1Cc1cccc2ccccc12 (stereo unspecified)" target_or_system="Escherichia coli" attribute_measured=Inhibition uom=% value_measured=0.69
compound="OC[C@H]1O[C@@H](n2c3ccc(Cl)cc3c3c(-c4cc5ccccc5o4)ncnc32)C(O)[C@H]1O (stereo partly specified)" target_or_system="Escherichia coli" attribute_measured=Inhibition uom=% value_measured=8.79
